The reader will find reported pIC50 values listed item by item below.
target: KRas G12V (Homo sapiens, UniProt P01116, G12V); assay: biochemical;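 also: KRas binding measured by TR-FRET displacement at room temperature, IC50 fitted from percent of control values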
Sequence (P01116 1-169 isoform P01116-2 G12V): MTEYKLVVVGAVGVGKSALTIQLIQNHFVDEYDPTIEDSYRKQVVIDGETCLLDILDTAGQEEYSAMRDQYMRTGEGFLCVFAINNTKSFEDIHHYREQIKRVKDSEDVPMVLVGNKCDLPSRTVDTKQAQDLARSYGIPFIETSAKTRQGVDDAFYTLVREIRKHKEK
pIC50: −log10 of the molar value.

Guide cases for pIC50, answers given:
stdin: So what's the measured pIC50 for this one? CCc1c(F)ccc2cc(O)cc(-c3ncc4c(NCc5cc(C(=O)N(C)C)nn5C)nc(OC[C@@]56CCCN5C[C@H](F)C6)nc4c3F)c12 [Example 483]
stdout: ≥ 8.70

stdin: Consider the molecule CCc1c(F)ccc2cc(O)cc(-c3ncc4c(NCc5ccc(=O)n(C)c5)nc(OC[C@@]56CCCN5C[C@H](F)C6)nc4c3F)c12 [Example 199] and give its measured pIC50.
stdout: ≥ 8.70

From here, focus on the item given below.
stdin: Using the record for CCc1c(F)ccc2cc(O)cc(-c3ncc4c(N5CCCC6(CC(=O)NC6=O)C5)nc(OC[C@@]56CCCN5C[C@H](F)C6)nc4c3F)c12 (stereo partly drawn) [Example 318] , report its pIC50.
stdout: ≥ 8.70

###

target: KRas G12A (Homo sapiens, UniProt P01116, G12A); assay: biochemical;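 also: binding to KRas measured by TR-FRET displacement after one hour at room temperature, IC50 from a four-parameter fit of percent-of-control values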
Sequence (P01116 1-169 isoform P01116-2 G12A): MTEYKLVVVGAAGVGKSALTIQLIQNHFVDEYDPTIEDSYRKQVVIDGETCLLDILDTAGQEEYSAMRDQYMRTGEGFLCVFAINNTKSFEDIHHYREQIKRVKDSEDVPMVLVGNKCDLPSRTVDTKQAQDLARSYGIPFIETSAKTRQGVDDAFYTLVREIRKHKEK
pIC50: −log10 of the molar value.
test.readout: pIC50

stdin: Quick one: pIC50 of Fc1c(-c2cccc3cccc(F)c23)ncc2c(N3CCCCC3)nc(OCC34CCCN3CCC4)nc12 [Example 21] ?
stdout: 4.90

1: Oc1nc(CCCNc2nc(OCC34CCCN3CCC4)nc3c(F)c(-c4cccc5cccc(Cl)c45)ncc23)n[nH]1 [Example 103]
2: O=C1CC2(CCN(c3nc(OCC45CCCN4CCC5)nc4c(F)c(-c5cccc6cccc(F)c56)ncc34)CC2)N1 [Example 77]
3: Fc1c(-c2cccc3cccc(F)c23)ncc2c(OCCCc3cccnc3)nc(OCC34CCCN3CCC4)nc12 [Example 207]
4: NS(=O)(=O)NC1CCCN(c2nc(OCC34CCCN3CCC4)nc3c(F)c(-c4cccc5cccc(F)c45)ncc23)C1 (stereo not shown) [Example 240]
stdin: Parameters: sort_field (pIC50), sort_dir (desc). In plain terms: list the labels in the order you were asked to.
stdout: 4, 2, 1, 3
(4: 6.23, 2: 5.97, 1: 5.68, 3: 4.74)

###

tested on: pERK in ASPC1 cells; test: Inhibition of KRas phosphorylation of ERK (Cisbio HTRF pERK assay); conditions: Homo sapiens, ASPC1, read-out: Inhibition (HTRF IC50) of KRas-mediated Phosphorylation of ERK, AsPC-1
pIC50: −log10 of the molar value.
test.readout: pIC50

stdin: Bench note: what pIC50 did CCc1c(F)ccc2cc(O)cc(-c3ncc4c(N5CCC[C@]6(C5)C[C@@H](O)C6)nc(OC[C@@]56CCCN5C[C@H](F)C6)nc4c3F)c12 (single isomer, unassigned) [Example 324] show?
stdout: 7.46

stdin: Param item = C#Cc1c(F)ccc2cc(O)cc(-c3ncc4c(N5CCOC[C@@](C)(O)C5)nc(OC[C@@]56CCCN5C[C@H](F)C6)nc4c3F)c12 [Example 201] ; retrieve measured pIC50.
stdout: 7.64

###

target: KRas G12R (Homo sapiens, UniProt P01116, G12R); test: biochemical
Sequence (P01116 1-169 isoform P01116-2 G12R): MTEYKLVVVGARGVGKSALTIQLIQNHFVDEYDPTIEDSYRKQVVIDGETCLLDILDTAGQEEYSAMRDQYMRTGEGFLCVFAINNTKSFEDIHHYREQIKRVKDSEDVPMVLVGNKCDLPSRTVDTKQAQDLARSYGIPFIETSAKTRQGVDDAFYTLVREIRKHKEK
pIC50: −log10 of the molar value.
test.readout: pIC50

Worked cases, answers included:
stdin: Quick check: pIC50 of CCc1c(F)ccc2cc(O)cc(-c3ncc4c(N5CCCCCC(S(C)(=O)=O)C5)nc(OC[C@@]56CCCN5C[C@H](F)C6)nc4c3F)c12 (stereo partly shown) ?
stdout: 8.52

stdin: Reported pIC50 for "Fc1c(-c2cccc3cccc(F)c23)ncc2c(NCCc3c[nH]nn3)nc(OCC34CCCN3CCC4)nc12" : what is it?
stdout: 5.33

stdin: Which pIC50 is reported for this compound? "Fc1c(-c2cccc3cccc(F)c23)ncc2c(N3CC(n4ccnc4)C3)nc(OCC34CCCN3CCC4)nc12"
stdout: 6.01

stdin: Recorded pIC50 of "CN(C)C(=O)n1cc2c(n1)CCCN(c1nc(OCC34CCCN3CCC4)nc3c(F)c(-c4cccc5cccc(F)c45)ncc13)C2" , please.
stdout: 5.56

A: C#Cc1c(F)ccc2cc(O)cc(-c3ncc4c(N5CCC[C@](C)(O)C5)nc(OC[C@@]56CCCN5C[C@H](F)C6)nc4c3F)c12
B: O=S1(=O)CC(CNc2nc(OCC34CCCN3CCC4)nc3c(F)c(-c4cccc5cccc(F)c45)ncc23)C1
C: CCc1c(F)ccc2cc(O)cc(-c3ncc4c(N5CCOC6(CCS(=O)(=O)CC6)C5)nc(OC[C@@]56CCCN5C[C@H](F)C6)nc4c3F)c12
stdin: Please list these compounds in decreasing order of pIC50. Enter labels, ranked according to the request.
stdout: A, C, B
